# System: COS-1 cells
# Assay method text: LDH assay (necrosis)
# Assay type: cell-based
# Condition label: 1 µM
The entries below are paired with their reported LDH.1µM.

| Compound | LDH.1µM |
| --- | --- |
| Cc1onc(-c2ccccc2)c1C(=O)Nc1ccc2oc(-c3ccccc3)cc(=O)c2c1 | -0.29 |
| CCN(CC)c1ccc(NC(=O)c2c(-c3ccsc3)noc2C)cc1 [Compound 39m] | -0.35 |
| CCC(=O)N(Cc1ccc(N(CC)CC)cc1)c1c(-c2ccccc2)noc1C | 0.36 |
| CCN(CC)c1ccc(/C=N/c2c(-c3ccccc3)noc2C)c(O)c1 | 2.83 |
| CC[N+](O)(CC)c1ccc(NC(=O)c2c(-c3ccccc3)noc2C)cc1 | 3.36 |
| Cc1onc(-c2ccccc2)c1C(=O)Nc1ccc(OCc2ccccc2)cc1 | -0.14 |
| CCC(OC)c1ccc(OCc2c(-c3ccccc3)noc2C)cc1 (racemic) [Compound 34e] | 1.31 |
| CCN(CC)c1ccc(NC(=O)c2c(C)noc2-c2ccccc2)cc1 | 0.39 |
| CCN(c1ccc(NC(=O)c2c(C)noc2-c2ccccc2)cc1)C(C)C | 0.04 |
| Cc1onc(-c2ccccc2)c1C(=O)Nc1ccc(C#C[Si](C)(C)C)cc1 | 1.09 |
| CCN(CC)c1ccc(NCc2c[nH]nc2-c2cc(F)cc(F)c2)cc1 | 2.87 |
| CCN(CC)c1ccc(NC(=O)c2c(-c3ccccc3)nnn2CCc2ccccc2)cc1 | 0.03 |
| CN(C)c1ccc(NCc2c[nH]nc2-c2ccc(F)cc2)cc1 | 0.7 |
| CCN(CC)c1ccc(NC(=O)c2c(-c3ccncc3)noc2C)cc1 [Compound 39c] | 0.58 |
| CCN(CC)c1ccc(NC(=O)c2snnc2-c2ccccc2)cc1 [Compound 47n] | 1.44 |
| CCN(CC)c1ccc(NC(=O)c2csc([N+](=O)[O-])c2)cc1 [Compound 47u] | 7.78 |
| CCN(c1ccc(NC(=O)c2c(-c3ccccc3)noc2C)cc1)C(C)C | 0.82 |
| Cc1onc(-c2ccccc2)c1COc1ccc(C(=O)OCCC#N)cc1 [Compound 35a] | 0.51 |
| CC(=O)COC(=O)c1ccc(OCc2c(-c3ccccc3)noc2C)cc1 [Compound 35d] | -0.61 |

* * *

The entries below are paired with their reported activity at 10 µM.
# Assayed system: GATA4 transcriptional activity (Mus musculus)
# Construct: expressed in transfected cells; host or cells: COS-1
# Sequence (Q08369 whole entry): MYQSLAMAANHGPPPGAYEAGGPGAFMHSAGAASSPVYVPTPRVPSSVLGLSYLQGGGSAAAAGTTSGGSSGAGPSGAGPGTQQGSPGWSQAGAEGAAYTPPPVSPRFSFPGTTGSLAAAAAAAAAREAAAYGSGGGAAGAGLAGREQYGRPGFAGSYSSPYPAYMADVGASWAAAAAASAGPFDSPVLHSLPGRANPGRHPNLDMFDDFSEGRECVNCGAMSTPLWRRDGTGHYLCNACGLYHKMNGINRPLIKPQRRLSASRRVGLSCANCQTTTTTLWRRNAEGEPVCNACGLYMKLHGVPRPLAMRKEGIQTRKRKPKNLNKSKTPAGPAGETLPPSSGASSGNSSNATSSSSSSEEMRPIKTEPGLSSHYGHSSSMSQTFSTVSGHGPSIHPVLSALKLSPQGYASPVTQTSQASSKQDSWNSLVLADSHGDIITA
# Assay method text: GATA4 luciferase reporter assay (tandem GATA-site reporter, COS-1 cells)
# Assay type: cell-based
# Condition label: COS-1; 10 µM; luciferase reporter activity relative to control

| Compound | U | activity at 10 µM |
| --- | --- | --- |
| CCCn1nnc(-c2ccccc2)c1C(=O)Nc1ccc(N(CC)CC)cc1 | % | 97.4 |
| COc1ccc(-c2cc(N)nn2C(=O)c2c(-c3ccccc3)noc2C)cc1 | % | 76.5 |
| CCN(CC)c1ccc(NC(=O)c2cnc3ncccn23)cc1 [Compound 47aa] | % | 132 |
| CCN(CC)c1ccc(NCc2c[nH]nc2-c2cc(F)cc(F)c2)cc1 | % | 78.5 |
| CCN(CC)c1ccc(NC(=O)c2c[nH]nc2-c2ccccc2)cc1 | % | 81.8 |
| Cc1onc(-c2ccccc2)c1C(=O)Nc1ccc(OCc2ccccc2)cc1 | % | 83.8 |
| CN(C)c1ccc(NCc2c[nH]nc2-c2ccc(F)cc2)cc1 | % | 49.1 |
| CCN(CC)c1ccc(NC(=O)c2ccnn2-c2ccccc2)cc1 | % | 61.8 |
| CCN(CC)c1ccc(NC(=O)c2c(C)noc2-c2cc(C)on2)cc1 | % | 102 |
| CC[N+](O)(CC)c1ccc(NC(=O)c2c(-c3ccccc3)noc2C)cc1 | % | 86.9 |
| CCN(CC)c1ccc(NC(=O)c2c(C)noc2-c2ccccc2)cc1 | % | 64.2 |
| CCN(CC)c1ccc(/C=N/c2c(-c3ccccc3)noc2C)c(O)c1 | % | 74.1 |
